# TESTED SYSTEM: T1, HLA-B*08:01 (human)
# T1 construct: MHC monomer first loaded with a UV-sensitive peptide that is cleaved by UV light and exchanged for the test peptide
# ASSAY METHOD TEXT: UV peptide exchange ELISA
MEASURED ATTRIBUTE: peptide exchange yield

Solved entries (count: 6):
[
  {
    "BINDER": "LPLDSRYVTL [LPLDSRYVTL (SEQ ID NO: 237)]",
    "RESULT": "50 to 75%"
  },
  {
    "BINDER": "STMPKILAL [STMPKILAL (SEQ ID NO: 5)]",
    "RESULT": "50 to 75%"
  },
  {
    "BINDER": "IYRKKYIL [IYRKKYIL (SEQ ID NO: 34)]",
    "RESULT": "20 to 50%"
  },
  {
    "BINDER": "HLHLLETSI [HLHLLETSI (SEQ ID NO: 106)]",
    "RESULT": "20 to 50%"
  },
  {
    "BINDER": "EVRLKPIL [EVRLKPIL (SEQ ID NO: 22)]",
    "RESULT": "20 to 50%"
  },
  {
    "BINDER": "LPINNTHI [LPINNTHI (SEQ ID NO: 160)]",
    "RESULT": "20 to 50%"
  }
]

Give me peptide exchange yield for each of these binders, listed below.
1. RPKGTPPL [RPKGTPPL (SEQ ID NO: 70)]
2. SEVNKHETAL [SEVNKHETAL (SEQ ID NO: 248)]

Result:
1: 20 to 50%; 2: 20 to 50%
